- ASSAY_EXPLANATION: qHTS RealTime-Glo MT Cell Viability Assay in HEK293 cells - 40 hour (AID 1224874); further: on the % scale 0 is the no-effect control and ±100 the full control effect; nearly all actives have a fitted effect of over 50% in size
- RUN_PARAMETERS: RealTime-Glo luminescence; active compounds read low
Results filed as inconclusive are left out.

{"MOLECULE": "CC1(C)COCN1", "max response, %": -0.12}
{"MOLECULE": "CC(C)C(=O)OCc1ccccc1", "max response, %": 18.1}
{"MOLECULE": "CCCCN(CCCC)CCC(O)c1cc2c(Cl)cc(Cl)cc2c2cc(C(F)(F)F)ccc12 (configuration not stated)", "max response, %": -17.9}
{"MOLECULE": "OCCCCl", "max response, %": 8.9}
{"MOLECULE": "CO[Si](CCCNCCNCCN)(OC)OC", "max response, %": 4.89}
{"MOLECULE": "CO[Si](CCC1CCC2OC2C1)(OC)OC (configuration not stated)", "max response, %": 8.81}
{"MOLECULE": "CC(C)=C1CC[C@@H](C)CC1=O", "max response, %": 0.14}
{"MOLECULE": "C=C(C)C(=O)OCCC[Si](Cl)(Cl)Cl", "max response, %": -5.22}
{"MOLECULE": "CCCCOC(=O)C(C)CC (configuration not stated)", "max response, %": 1.36}
{"MOLECULE": "CC(C)(C)C1=CC(=O)C=C(C(C)(C)C)C1=O", "max response, %": 11.2}
{"MOLECULE": "Cc1occc1SSc1ccoc1C", "max response, %": -28.3}
{"MOLECULE": "CC(C)=CC1CC(C)CCO1 (configuration not stated)", "max response, %": 2.02}
{"MOLECULE": "CCO[Si](C)(C)OCC", "max response, %": -0.247}
{"MOLECULE": "CC(C)(C)c1cc(CCC(=O)NCCCCCCNC(=O)CCc2cc(C(C)(C)C)c(O)c(C(C)(C)C)c2)cc(C(C)(C)C)c1O", "max response, %": -24.8}
{"MOLECULE": "CCCCCCCCCCCC(=O)N(CC)CC", "max response, %": -24.4}
{"MOLECULE": "OCCC(O)CO (configuration not stated)", "max response, %": 15.6}
{"MOLECULE": "O=CC1CC1", "max response, %": 12}
{"MOLECULE": "CCN(CC)c1cccc(C)c1", "max response, %": -4.54}
{"MOLECULE": "CCCC(O)C(O)CO (configuration not stated)", "max response, %": 4.32}
{"MOLECULE": "c1cc2c3c(c1)ccc1cccc(c13)C2", "max response, %": -20.7}
{"MOLECULE": "CC(=O)Oc1ccc(C2(c3ccc(OC(C)=O)cc3)C(=O)Nc3ccccc32)cc1", "max response, %": -6.95}
{"MOLECULE": "Cc1cnccn1", "max response, %": 8.17}
{"MOLECULE": "Cc1cn[nH]c1", "max response, %": 7.93}
{"MOLECULE": "CC(C)=CCCC(C)CCOC(=O)C(C)C (configuration not stated)", "max response, %": 12.8}
{"MOLECULE": "O=S(=O)(O)CCCN1CCOCC1", "max response, %": 12.7}
{"MOLECULE": "CCCCCCCCCC(=O)N(C)C", "max response, %": -15.6}
{"MOLECULE": "COc1ccccc1C=O", "max response, %": 3.17}
{"MOLECULE": "CCc1cccc(C)c1", "max response, %": -0.877}
{"MOLECULE": "COC(=O)CC#N", "max response, %": 9.57}
{"MOLECULE": "O=C(O)c1cccc(Cl)n1", "max response, %": 7.12}
{"MOLECULE": "COc1cccc(O)c1", "max response, %": 11.4}
{"MOLECULE": "CC1(C)C(=O)N(Br)C(=O)N1Br", "max response, %": -1.21}

====

- ASSAY_EXPLANATION: qHTS RealTime-Glo MT Cell Viability Assay in HEK293 cells - 8 hour (AID 1224887); further: nearly all actives have a fitted effect of over 50% in size
- RUN_PARAMETERS: RealTime-Glo luminescence; series mostly up to 76.8 µM
- Description: U.S. Tox21 Program National Center for Advancing Translational Sciences [NCATS] NIH Chemical Genomics Center [NCGC] U.S. Environmental Protection Agency [EPA] National Institutes of Environmental Health Sciences [NIEHS] National Toxicology Program [NTP] U.S. Food and Drug Administration [FDA] Tox21 Assay Overview: Measure of cell viability is critical in the cell-base assay. Analysis of cell viability is necessary for the characterization of cell responses to cytotoxic drugs and environmental stress. […]
Results filed as inconclusive are left out. Calls of active or inactive are those of the source. Calls come from the whole dose curve; as a rule, active = well fitted cell-killing curve with a large enough effect in the repeat runs; inconclusive = weak or mixed curves, or effect the other way; inactive = flat fitted curve, though single readings scatter.
Outcomes: active, inactive

{"COMPOUND": "C#CC(O)CCC (stereo unspecified)", "LABEL_VALUE": "inactive"}
{"COMPOUND": "OCCCc1cccnc1", "LABEL_VALUE": "inactive"}
{"COMPOUND": "CO[Si](CCC1CCC2OC2C1)(OC)OC (stereo unspecified)", "LABEL_VALUE": "inactive"}
{"COMPOUND": "Cc1ccc(-n2[nH]c(C)c(N=Nc3cccc(-c4cccc(C(=O)O)c4)c3O)c2=O)cc1C", "LABEL_VALUE": "inactive"}
{"COMPOUND": "CCN(CC)c1cccc(C)c1", "LABEL_VALUE": "inactive"}
{"COMPOUND": "Cc1ccc2ccc3cccc4ccc1c2c34", "LABEL_VALUE": "inactive"}
{"COMPOUND": "Cc1c(C(=O)O)cccc1[N+](=O)[O-]", "LABEL_VALUE": "inactive"}
{"COMPOUND": "CC(O)C#CC(C)O (stereo unspecified)", "LABEL_VALUE": "inactive"}
{"COMPOUND": "CC(C)=CCCC(C)O (stereo unspecified)", "LABEL_VALUE": "inactive"}
{"COMPOUND": "CCc1ccc(C)nc1", "LABEL_VALUE": "inactive"}
{"COMPOUND": "COc1nccnc1CC(C)C", "LABEL_VALUE": "inactive"}
{"COMPOUND": "CCCCCCCC(C)=O", "LABEL_VALUE": "inactive"}
{"COMPOUND": "CC(=O)O[C@@H]1C[C@@H]2CC[C@@]1(C)C2(C)C", "LABEL_VALUE": "inactive"}
{"COMPOUND": "CN1CCN(C2Cc3ccccc3Sc3ccc(Cl)cc32)CC1 (stereo unspecified)", "LABEL_VALUE": "inactive"}
{"COMPOUND": "CCCCCCCCCCCCCCCC", "LABEL_VALUE": "inactive"}
{"COMPOUND": "CCOCOCC", "LABEL_VALUE": "inactive"}
{"COMPOUND": "CCOC(OCC)C(=O)c1ccccc1", "LABEL_VALUE": "inactive"}
{"COMPOUND": "CCCCCCS", "LABEL_VALUE": "inactive"}
{"COMPOUND": "Cc1cc(Nc2ccc(O)cc2)ccc1N", "LABEL_VALUE": "active"}
{"COMPOUND": "CO[Si](CCCNCCNCCN)(OC)OC", "LABEL_VALUE": "inactive"}
{"COMPOUND": "CCC(C)c1cc([N+](=O)[O-])cc([N+](=O)[O-])c1OC(=O)OC(C)C (stereo unspecified)", "LABEL_VALUE": "active"}
{"COMPOUND": "O=C1OC(OC(=O)c2cccnc2Nc2cccc(C(F)(F)F)c2)c2ccccc21 (stereo unspecified)", "LABEL_VALUE": "inactive"}
{"COMPOUND": "CCC1CCCCC1", "LABEL_VALUE": "inactive"}
{"COMPOUND": "COc1ccc(C#N)cc1", "LABEL_VALUE": "inactive"}
{"COMPOUND": "c1ccc(Sc2ccccc2)cc1", "LABEL_VALUE": "inactive"}
{"COMPOUND": "CC(C)=CC1CC(C)CCO1 (stereo unspecified)", "LABEL_VALUE": "inactive"}
{"COMPOUND": "CCCCCCCC(OC)OC", "LABEL_VALUE": "inactive"}
{"COMPOUND": "CC(=O)Oc1ccc(C2(c3ccc(OC(C)=O)cc3)Oc3ccccc3NC2=O)cc1", "LABEL_VALUE": "inactive"}
{"COMPOUND": "Cc1c(C)n(Cc2ccccc2)c2ccc(C(=O)OCCN(C)C)cc12", "LABEL_VALUE": "inactive"}
{"COMPOUND": "CCCCCCCCCCOCC(O)CN (stereo unspecified)", "LABEL_VALUE": "active"}
{"COMPOUND": "CC(=O)Nc1ccc(O)cc1", "LABEL_VALUE": "inactive"}

====

- TARGET_ENTITY: Nuclear receptor subfamily 1 group I member 2 (Homo sapiens) (UniProt O75469)
- Sequence (O75469 whole entry, looked up): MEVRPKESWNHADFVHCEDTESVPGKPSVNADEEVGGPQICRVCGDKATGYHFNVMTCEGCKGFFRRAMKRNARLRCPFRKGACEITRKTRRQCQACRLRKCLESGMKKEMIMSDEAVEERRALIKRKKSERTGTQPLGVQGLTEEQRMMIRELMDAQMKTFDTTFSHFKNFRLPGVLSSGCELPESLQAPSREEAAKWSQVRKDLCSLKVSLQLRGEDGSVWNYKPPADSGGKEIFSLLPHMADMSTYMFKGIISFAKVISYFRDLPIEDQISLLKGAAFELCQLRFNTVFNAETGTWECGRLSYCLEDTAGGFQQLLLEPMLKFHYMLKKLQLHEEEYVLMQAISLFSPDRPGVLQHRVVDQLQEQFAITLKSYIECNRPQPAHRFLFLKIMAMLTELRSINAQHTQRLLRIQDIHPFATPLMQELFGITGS
- ASSAY_EXPLANATION: Human pregnane X receptor (PXR) small molecule agonists, qHTS assay (AID 1346982); further: nearly all actives have a fitted effect of over 35% in size; on activation: on the % scale 0 is the no-effect control and ±100 the full control effect
- RUN_PARAMETERS: PXR-Luc HepG2, CYP3A4 luciferase reporter, 24 h; series mostly up to 92.4 µM
Results filed as inconclusive are left out. Calls of active or inactive are those of the source. The call rests on the fitted dose curve; in most records, active means well fitted activation curve with a large enough effect in the repeat runs; inconclusive means weak or mixed curves; inactive means no such curve, though single readings can be large or run the other way.
Outcomes: 1 for active, 0 for inactive

{"MOLECULE": "CO[Si](CCCNCCNCCN)(OC)OC", "LABEL_VALUE": 0}
{"MOLECULE": "CCCCCCCCCCCCN(CCO)CCO", "LABEL_VALUE": 1}
{"MOLECULE": "Cc1cc(=O)[nH]c(=O)[nH]1", "LABEL_VALUE": 0}
{"MOLECULE": "CC(C)C(=O)OCc1ccccc1", "LABEL_VALUE": 0}
{"MOLECULE": "N#CSCSc1nc2ccccc2s1", "LABEL_VALUE": 1}
{"MOLECULE": "CCCCN(C)C", "LABEL_VALUE": 0}
{"MOLECULE": "Cc1c(C(=O)O)cccc1[N+](=O)[O-]", "LABEL_VALUE": 0}
{"MOLECULE": "CC(=O)c1ccccc1N", "LABEL_VALUE": 0}
{"MOLECULE": "CCCCCCCC(=O)OCC", "LABEL_VALUE": 0}
{"MOLECULE": "O=S(=O)(O)CCCN1CCOCC1", "LABEL_VALUE": 0}
{"MOLECULE": "COC(=O)CC(C)CCC=C(C)C (stereo unspecified)", "LABEL_VALUE": 0}
{"MOLECULE": "CCC(C)c1ccccc1 (stereo unspecified)", "LABEL_VALUE": 0}
{"MOLECULE": "COC(=O)CC#N", "LABEL_VALUE": 0}
{"MOLECULE": "CCCC(O)C(O)CO (stereo unspecified)", "LABEL_VALUE": 0}
{"MOLECULE": "CN1CCN(C2Cc3ccccc3Sc3ccc(Cl)cc32)CC1 (stereo unspecified)", "LABEL_VALUE": 0}
{"MOLECULE": "CCOC(=O)CC(C)O (stereo unspecified)", "LABEL_VALUE": 0}
